# key: entry, value: nm (Fold wt)
# Assay System: T1, mouse folate receptor alpha (mFRα), recombinant protein (mouse, UniProt P35846 25-232)
# T1 construct: Bought recombinant proteins (e.g. biotinylated, Acro Biosystems FO1-M82E9); also called mFOLR1; Ms FOLR1
# T1 sequence (P35846 25-232 limits assumed): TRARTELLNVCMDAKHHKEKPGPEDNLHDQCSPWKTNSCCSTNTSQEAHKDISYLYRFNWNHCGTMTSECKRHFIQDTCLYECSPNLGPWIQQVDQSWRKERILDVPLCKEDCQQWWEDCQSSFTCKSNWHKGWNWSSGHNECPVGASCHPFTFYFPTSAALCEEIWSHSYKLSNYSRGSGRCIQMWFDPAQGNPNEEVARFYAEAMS
# Experiment Notes: BLI
Please respond with just the number, no unit label.

{"Binder": "P01500014: P0150001 with M32P (VHH, Entry carries a His6 tag) VHH: EVQLVESGGGLVQPGGSLRLSCAASGSGFSGPIMGWYRQAPGKQRELVATVTSHGTTNYADSVKGRFTISRDNAKNTVYLQMNSLRPEDTAVYYCNAHFPGIYWGKGTLVTVSS", "Observed Measurement": 1.5}

For this binder ( P01500088: P0150001 with S27T, M32I (VHH) VHH: EVQLVESGGGLVQPGGSLRLSCAASGTGFSGIIMGWYRQAPGKQRELVATVTSHGTTNYADSVKGRFTISRDNAKNTVYLQMNSLRPEDTAVYYCNAHFPGIYWGKGTLVTVSS ), measured nm (Fold wt) is 9.4
